Conditions: in ethanol, 303.15 K
Parameter Measured: solubility (mole fraction)
I only need the number, thanks.

-- ask May I ask what solubility (mole fraction) has been recorded for "Cc1cnc(NC(=O)C2=C(O)c3ccccc3S(=O)(=O)N2C)s1" ?
-- reply 3.95e-05

* * *

Conditions: in ethanol, 298.15 K
Parameter Measured: solubility (mole fraction)
I only need the number, thanks.

-- ask May I ask what solubility (mole fraction) has been recorded for "Cc1cnc(NC(=O)C2=C(O)c3ccccc3S(=O)(=O)N2C)s1" ?
-- reply 3.2e-05

* * *

Details: in ethanol, 293.15 K
Parameter Measured: solubility (mole fraction)
I only need the number, thanks.

-- ask May I ask what solubility (mole fraction) has been recorded for "Cc1cnc(NC(=O)C2=C(O)c3ccccc3S(=O)(=O)N2C)s1" ?
-- reply 2.55e-05

Values compiled from BigSolDB 2.1.
